- System: NCI-H460
- Assay comment: In vitro growth inhibition of PI3KCA amplified/mutant tumor cells NCI-H460
- Format: cell-based
- Condition parameters: Homo sapiens, NCI-H460, read-out: IC50 growth inhibition
Value kind: pIC50
Give only the number. pIC50 is defined as minus log10 of concentration in molar units.

Value lookup for pIC50; key = COc1c(OCCCN2CCOCC2)ccc2c1N=C(NC(=O)c1cnc(N)nc1)N1CCN=C21 [BAY 80-6946, reference compound]
7.52

---

- Test system: Kasumi-1 (KIT N822K)
- Assay comment: In vitro growth inhibition of Kasumi-1 tumor cells (MTT/CCK8)
- Type: cell-based, Human
- Condition parameters: Homo sapiens, Kasumi 1; in vitro growth inhibition (or induction of apoptosis), cells cultured 3 to 5 days, MTT (CCK8); read-out: IC50 Kasumi-1 (KIT N822K)
Could you please report measured IC50 for the items listed next?
Number only, in nM; omit the unit.

Please provide the recorded IC50 for COc1cc2nccc(Oc3ccc(NC(=O)Nc4cc(C(C)(C)C)on4)cc3Cl)c2cc1C(N)=O , tested on Kasumi-1 (KIT N822K).
35.1

Query CCc1cc(NC(=O)Nc2cc(C(C)(C)C)n[nH]2)ccc1Oc1ccnc2cc(OC)c(C(N)=O)cc12 next
176

// same read-out, input: COCCOc1cc2nccc(Oc3ccc(NC(=O)Nc4cc(C(C)(C)C)n[nH]4)c(Cl)c3)c2cc1C(N)=O
191

And then CNC(=O)c1cc2c(Oc3ccc(NC(=O)Nc4cc(C(C)(C)C)n[nH]4)c(Cl)c3)ccnc2cc1OC , what is it?
34.2

How about COc1cc2nccc(Oc3ccc(NC(=O)Nc4cc(C(C)(C)C)n[nH]4)c(Cl)c3)c2cc1NC(=O)C1CCCC1 ?
568

---

For each of the compounds below, state its IC50.
- Test system: Kasumi-1 (KIT N822K)
- Assay comment: In vitro growth inhibition of Kasumi-1 tumor cells (MTT/CCK8)
- Format: cell-based, Human
- Condition parameters: Homo sapiens, Kasumi 1; in vitro growth inhibition (or induction of apoptosis), cells cultured 3 to 5 days, MTT (CCK8); read-out: IC50 Kasumi-1 (KIT N822K)

Quick check: IC50 on Kasumi-1 (KIT N822K), item COc1cc2nccc(Oc3ccc(NC(=O)Nc4cc(C(C)(C)C)n[nH]4)cn3)c2cc1NC(C)=O ?
> 1000 nM

How about this compound: CC(C)(C)c1cc(NC(=O)Nc2ccc(Oc3ccnc4cc(OCCCN5CCN(C(C)(C)C)CC5)c(C(N)=O)cc34)cc2Cl)[nH]n1
4.19 nM

Now consider COc1cc2nccc(Oc3ccc(NC(=O)Nc4cc(C(C)(C)C)on4)cn3)c2cc1C(N)=O and answer again.
> 1000 nM

Continue with CNC(=O)c1cc2c(Oc3ccc(NC(=O)Nc4cc(C(C)(C)C)nn4C)c(C)c3)ccnc2cc1OC
65.6 nM

---

- Tested on: KATO III (FGFR2 amp)
- Assay comment: In vitro growth inhibition of KATO III tumor cells (MTT/CCK8)
- Assay type: cell-based, Human
- Condition parameters: Homo sapiens, KATO III; in vitro growth inhibition (or induction of apoptosis), cells cultured 3 to 5 days, MTT (CCK8); read-out: IC50 KATO III (FGFR2 amp)
Value kind: pIC50
Value format note: pIC50 is -log10 of concentration (mol/L); just state the number.

Hello, I am looking for reported pIC50 with KATO III (FGFR2 amp) for COc1cc2nccc(Oc3ccc(NC(=O)Nc4cc(C(C)(C)C)n[nH]4)c(Cl)c3)c2cc1NC(=O)C1CCCC1 . Could you help?
7.96

Now try CC(C)(C)c1cc(NC(=O)Nc2ccc(Oc3ccnc4cc(O)c(C(N)=O)cc34)c(Cl)c2Cl)[nH]n1 .
7.76

Let us now turn to COc1cc2nccc(Oc3ccc(NC(=O)Nc4cc(C(C)(C)C)nn4C)c(Cl)c3C)c2cc1C(N)=O
10.00

---

- Test system: H1703 (PDGFRa amp)
- Assay comment: In vitro growth inhibition of H1703 tumor cells (MTT/CCK8)
- Assay type: cell-based, Human
- Condition parameters: Homo sapiens, NCI-H1703; in vitro growth inhibition (or induction of apoptosis), cells cultured 3 to 5 days, MTT (CCK8); read-out: IC50 H1703 (PDGFRa amp)
Value kind: pIC50
In plain terms, pIC50 is the concentration in mol/L turned into minus its base-10 logarithm.

Lab note: need pIC50 with H1703 (PDGFRa amp) for entry CNC(=O)c1cc2c(Oc3ccc(NC(=O)Nc4cc(C(C)(C)C)n[nH]4)c(C)c3)ccnc2cc1OC , please look it up.
7.81

// query: COc1cc2nccc(Nc3ccc(NC(=O)Nc4cc(C(C)(C)C)on4)c(Cl)c3)c2cc1C(N)=O
6.67

Continue with COc1cc2nccc(Oc3ccc(NC(=O)Nc4cc(C(C)(C)C)n[nH]4)c(C)c3C)c2cc1C(N)=O
6.97

For CCC(=O)Nc1cc2c(Oc3ccc(NC(=O)Nc4cc(C(C)(C)C)n[nH]4)c(Cl)c3)ccnc2cc1OC then?
7.88

Another compound to check: COc1cc2nccc(Oc3ccc(NC(=O)Nc4cc(C(C)(C)C)n[nH]4)c(Cl)c3)c2cc1C#N
6.36

Cool, now CN1CCN(CCCOc2cc3nccc(Oc4ccc(NC(=O)Nc5cc(C(C)(C)C)n[nH]5)c(Cl)c4)c3cc2C(N)=O)CC1
8.03

# iterate: COc1cc(Oc2ccnc3cc(OC)c(C(N)=O)cc23)ccc1NC(=O)n1nc(C(C)(C)C)cc1N
6.65

---

Can you tell me IC50 for the items I'm about to list?
- System: H1703 (PDGFRa amp)
- Assay comment: In vitro growth inhibition of H1703 tumor cells (MTT/CCK8)
- Format: cell-based, Human
- Condition parameters: Homo sapiens, NCI-H1703; in vitro growth inhibition (or induction of apoptosis), cells cultured 3 to 5 days, MTT (CCK8); read-out: IC50 H1703 (PDGFRa amp)
Note: unit nM is implicit; provide only the numeric part.

So what's the measured IC50 for this one? CNC(=O)c1cc2c(Oc3ccc(NC(=O)Nc4cc(C(C)(C)C)n[nH]4)c(C(F)(F)F)c3)ccnc2cc1OC
48.4

# iterate: CNC(=O)c1cc2c(Oc3ccc(NC(=O)Nc4cc(C(C)(C)C)n[nH]4)cc3Cl)ccnc2cc1OC
71.5

Queued: C=CC(=O)Nc1cc2c(Oc3ccc(NC(=O)Nc4cc(C(C)(C)C)on4)c(Cl)c3)ccnc2cc1OC
27.8

CNC(=O)c1cc2c(Oc3ccc(NC(=O)Nc4cc(C(C)(C)C)on4)c(Cl)c3)ccnc2cc1OC ?
10.2

Also, CN1CCCN(CCCOc2cc3nccc(Oc4ccc(NC(=O)Nc5cc(C(C)(C)C)n[nH]5)c(Cl)c4)c3cc2C(N)=O)CC1 please.
55.6

And what about the compound COc1cc2nccc(Oc3ccc(NC(=O)Nc4cc(C(C)(C)C)n[nH]4)cc3F)c2cc1NC(C)=O ?
71.2

Lookup COc1cc2nccc(Oc3ccc(NC(=O)Nc4cc(C(C)(C)C)on4)c(Cl)c3)c2cc1C(N)=O
7.9

---

- System: H1581 (FGFR1 amp)
- Assay comment: In vitro growth inhibition of H1581 tumor cells (MTT/CCK8)
- Assay type: cell-based, Human
- Condition parameters: Homo sapiens, NCI-H1581; in vitro growth inhibition (or induction of apoptosis), cells cultured 3 to 5 days, MTT (CCK8); read-out: IC50 H1581 (FGFR1 amp)
- Description: Tumor cell lines are an effective model for studying in vitro tumor growth inhibition. In the present invention, a representative tumor cell line was selected to determine the cell growth inhibition activity of the present compound. All cell lines used were from ATCC, DSMZ, and cell banks of the Chinese Academy of Sciences. […] Adherent cells were digested with 0.25% trypsin-EDTA (Gibco). […] The supernatant was discarded and the cells were counted. […]
Value kind: IC50 (nM)
Please respond with the number in nM and leave the unit unwritten.

Fill in the blank: the reported IC50 of COc1cc2nccc(Oc3ccc(NC(=O)Nc4cc(C(C)(C)C)n[nH]4)cc3C)c2cc1C(N)=O is ____.
105

And what about the compound COc1cc2nccc(Nc3ccc(NC(=O)Nc4cc(C(C)(C)C)on4)cc3)c2cc1C(N)=O ?
684

Ok, now COc1cc2nccc(Oc3ccc(NC(=O)Nc4cc(C(C)(C)C)n[nH]4)cn3)c2cc1NC(C)=O
160

Moving on to COc1cc2nccc(Oc3ccc(NC(=O)Nc4cc(C(C)(C)C)on4)c(C)c3)c2cc1C(N)=O
10.6

Another compound to look at: CN(C)CCOc1cc2nccc(Oc3ccc(NC(=O)Nc4cc(C(C)(C)C)n[nH]4)c(Cl)c3Cl)c2cc1C(N)=O
210

Consider next the compound CNC(=O)c1cc2c(Oc3ccc(NC(=O)Nc4cc(C(C)(C)C)n[nH]4)c(Cl)c3)ccnc2cc1OCCOC in the same way.
5.5

Same question, CNC(=O)c1cc2c(Oc3ccc(NC(=O)Nc4cc(C(C)(C)C)n[nH]4)c(C)c3)ccnc2cc1OC this time
63.1

Then what about the compound CCc1cc(NC(=O)Nc2cc(C(C)(C)C)n[nH]2)ccc1Oc1ccnc2cc(OC)c(C(N)=O)cc12 ?
168

Ok, now COCCOc1cc2nccc(Oc3ccc(NC(=O)Nc4cc(C(C)(C)C)nn4CCN4CCOCC4)c(Cl)c3)c2cc1NC(C)=O
9.1

What do you get for CCN1CCN(c2ccc(Nc3cc(N(C)C(=O)Nc4c(Cl)c(OC)cc(OC)c4Cl)ncn3)cc2)CC1 [BGJ398, reference compound] ?
6.97

And what about the compound COc1cc2nccc(Oc3ccc(NC(=O)Nc4cc(C(C)(C)C)n[nH]4)c(C(F)(F)F)c3)c2cc1C(N)=O ?
49.8

Check COCCNC(=O)c1cc2c(Oc3ccc(NC(=O)Nc4cc(C(C)(C)C)n[nH]4)c(Cl)c3)ccnc2cc1OC too.
13.7
